- TEST: Quantitative High-Throughput drug screen in 47 multiple myeloma cell lines against the NCATS MIPE library collection: JIM3_ECACC cell viability assay (AID 1918963; further: nearly all actives have a fitted effect of over 35% in size)
- CONDITION PARAMETERS: JIM3 myeloma viability, CellTiter-Glo ATP, 48 h; series mostly up to 45.8 µM
Results filed as inconclusive are left out. The source made the active and inactive calls. The call rests on the fitted dose curve; in most records, active means well fitted cell-killing curve with a large enough effect; inconclusive means small, poorly fitted or top-dose-only effect; inactive means no such curve, though single readings can be large or run the other way.
Select the matching outcome among 1 (yes) (active), 0 (no) (inactive)

Assay result, entry "O=C1CC[C@@]2(O)[C@H]3Cc4ccc(O)c5c4[C@@]2(CCN3CC2CC2)[C@H]1O5" — outcome?
0 (no)

Assay result, entry "CN(C)CCN(C)CCc1ccc(Cl)c(Cl)c1" — outcome?
0 (no)

Assay result, entry "Cc1sc2c(c1C)C(c1ccc(Cl)cc1)=N[C@@H](CC(=O)OC(C)(C)C)c1nnc(C)n1-2" — outcome?
1 (yes)

Assay result, entry "Cc1cc(SCc2sc(-c3ccc(C(F)(F)F)c(F)c3)nc2C)ccc1OCC(=O)O" — outcome?
1 (yes)

Assay result, entry "C#CCN(C)[C@H](C)Cc1ccccc1" — outcome?
0 (no)

Assay result, entry CNCC(O)c1ccc(O)cc1 (centres undefined) — outcome?
0 (no)

Assay result, entry COC1(CS(=O)c2ccccc2)CCN(CCc2c[nH]c3ccc(F)cc23)CC1 (centres undefined) — outcome?
0 (no)

Assay result, entry "COC[C@@H](NC(C)=O)C(=O)NCc1ccccc1" — outcome?
0 (no)

Assay result, entry "Fc1ccc(C(OCCN2CCN(CCCc3ccccc3)CC2)c2ccc(F)cc2)cc1" — outcome?
1 (yes)

Assay result, entry COC[C@H]1OC(=O)c2coc3c2[C@@]1(C)C1=C(C3=O)C2CCC(=O)[C@@]2(C)C[C@H]1OC(C)=O (some centres undefined) — outcome?
1 (yes)

Assay result, entry "O=c1[nH]c2ccccc2n1CCCN1CCC(n2c(=O)[nH]c3cc(Cl)ccc32)CC1" — outcome?
0 (no)

Assay result, entry CNC(=O)N1N=C(c2ccc(N)cc2)c2cc3c(cc2CC1C)OCO3 (centres undefined) — outcome?
1 (yes)

Assay result, entry CC(O)(CS(=O)(=O)c1ccc(F)cc1)C(=O)Nc1ccc(C#N)c(C(F)(F)F)c1 (centres undefined) — outcome?
1 (yes)

Assay result, entry O=P1(NCCCl)OCCCN1CCCl (centres undefined) — outcome?
1 (yes)

Assay result, entry "Cc1cccc(C)c1NC(=O)CN1CCCC1=O" — outcome?
0 (no)

Assay result, entry CC(C)CC(N(C)C)C1(c2ccc(Cl)cc2)CCC1 (centres undefined) — outcome?
0 (no)

Assay result, entry "C=C(C)[C@H]1Cc2c(ccc3c2O[C@@H]2COc4cc(OC)c(OC)cc4[C@@H]2C3=O)O1" — outcome?
1 (yes)

Assay result, entry COc1ccc(C(CN(C)C)C2(O)CCCCC2)cc1 (centres undefined) — outcome?
0 (no)

Assay result, entry "N[C@@H](Cc1ccc(N(CCCl)CCCl)cc1)C(=O)O" — outcome?
1 (yes)
